Reference source: patent US10781262B2

# target.under.test: human FolR1 (Homo sapiens, UniProt P15328)
# Sequence (P15328 with tags, fused parts or gaps): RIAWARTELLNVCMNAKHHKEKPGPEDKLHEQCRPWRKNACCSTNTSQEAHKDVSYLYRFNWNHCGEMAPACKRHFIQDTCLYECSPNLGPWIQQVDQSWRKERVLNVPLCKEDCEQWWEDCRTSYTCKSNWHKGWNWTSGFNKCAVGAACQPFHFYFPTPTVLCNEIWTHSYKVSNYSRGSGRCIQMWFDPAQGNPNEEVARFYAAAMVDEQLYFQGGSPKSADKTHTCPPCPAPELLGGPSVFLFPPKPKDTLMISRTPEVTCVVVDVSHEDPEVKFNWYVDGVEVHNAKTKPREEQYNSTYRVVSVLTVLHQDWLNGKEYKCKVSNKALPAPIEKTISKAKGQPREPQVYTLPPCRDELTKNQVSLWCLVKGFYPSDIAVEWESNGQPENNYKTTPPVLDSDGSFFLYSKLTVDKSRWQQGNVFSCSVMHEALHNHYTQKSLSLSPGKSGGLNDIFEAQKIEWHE
# Sequence (P01857 104-330 isoform P01857-1 Y232C/T249S/L251A/Y290V/H318R/Y319F partner): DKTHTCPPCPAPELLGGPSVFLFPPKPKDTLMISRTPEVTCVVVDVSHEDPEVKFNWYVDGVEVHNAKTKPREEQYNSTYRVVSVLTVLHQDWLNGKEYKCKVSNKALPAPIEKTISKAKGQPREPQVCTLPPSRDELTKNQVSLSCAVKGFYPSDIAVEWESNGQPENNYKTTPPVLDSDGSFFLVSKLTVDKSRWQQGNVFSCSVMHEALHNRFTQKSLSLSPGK
# measurement.conditions: IgG injected for 60 seconds at 500 nM
readout.label: Binding to huFolR1

Mov19: reference molecule, the human FolR1 binder Mov19 (IgG) (antibody, V domains shown) VH: QVQLQQSGAELVKPGASVKISCKASGYSFTGYFMNWVKQSHGKSLEWIGRIHPYDGDTFYNQNFKDKATLTVDKSSNTAHMELLSLTSEDFAVYYCTRYDGSRAMDYWGQGTTVTVSS VL: DIELTQSPASLAVSLGQRAIISCKASQSVSFAGTSLMHWYHQKPGQQPKLLIYRASNLEAGVPTRFSGSGSKTDFTLNIHPVEEEDAATYYCQQSREYPYTFGGGTKLEIK | +
5D9: anti-FolR1 clone, generic multi-framework library (Vk3_20/VH1_46); Fab and IgG (antibody, V domains shown) VH: QVQLVQSGAEVKKPGASVKVSCKASGYTFTSYYMHWVRQAPGQGLEWMGIINPSGGSTSYAQKFQGRVTMTRDTSTSTVYMELSSLRSEDTAVYYCARSYIDMDYWGQGTLVTVSS VL: EIVLTQSPGTLSLSPGERATLSCRASQSVSSSYLAWYQQKPGQAPRLLIYGASSRATGIPDRFSGSGSGTDFTLTISRLEPEDFAVYYCQQDNWSPTFGQGTKVEIK | +
11F8: anti-FolR1 clone, generic multi-framework library (Vk_1_5/VH_1_69); Fab and IgG (antibody, V domains shown) VH: QVQLVQSGAEVKKPGSSVKVSCKASGGTFSSYAISWVRQAPGQGLEWMGGIIPIFGTANYAQKFQGRVTITADKSTSTAYMELSSLRSEDTAVYYCARAVFYRAWYSFDYWGQGTTVTVSS VL: DIQMTQSPSTLSASVGDRVTITCRASQSISSWLAWYQQKPGKAPKLLIYDASSLESGVPSRFSGSGSGTEFTLTISSLQPDDFATYYCQQYTSPPPTFGQGTKVEIK | +
